Give measured inhibition for each item. Keep answers brief.
- experimental.protocol: M. tuberculosis growth inhibition, HTS (AID 449762);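 also: bacterial growth assessed after seven days of incubation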
- recorded.conditions: M. tuberculosis H37Rv growth inhibition, 7H9 media; at 25 µM; hits give high values
Screen size: about 330,000 compounds; about 1,900 (0.58%) were called active. Not shown: some 4% with an inconclusive outcome. A selection follows. Measured potencies and affinities stand elsewhere.
I only need the number, in %, no unit after it.

Prompt line: Provide one value: measured inhibition of `C[C@H]1COC(=O)[C@H](Cc2ccc(F)cc2)CC/C=C/C[C@@H](CC(=O)N[C@@H](CO)Cc2ccccc2)C(=O)N1`
Response line: 7.3

Prompt line: // fetch inhibition given entry CC(Oc1cc2oc(=O)c3c(c2cc1Cl)CCC3)C(=O)NCc1ccccn1 (centres undefined)
Response line: 31

Prompt line: # return recorded inhibition for input `CCOC(=O)c1nn(-c2ccc(C)cc2)c(=O)cc1OCC(=O)Nc1ccc(OC)cc1`
Response line: 8.61

Prompt line: Fill in reported inhibition for this entry: O=C(NCCc1ccc(Cl)cc1)c1ccc(OCC2CCCO2)cc1 (centres undefined)
Response line: 5.17

Prompt line: Given `COc1cc(NC(=O)C[n+]2ccc(C(=O)c3ccccc3)cc2)cc(OC)c1` , respond with its inhibition.
Response line: -7.81

Prompt line: Give the reported inhibition for this compound. O=C(CCc1nnc(CCCCc2ccccc2)o1)NCCC1CCCCO1 (centres undefined)
Response line: -2.58

Prompt line: State, in one line, measured inhibition of `CCOC(=O)c1nsnc1NCCCl`
Response line: 4.35

Prompt line: For the compound `O=[N+]([O-])c1cccc(/C=N/Nc2nc(C(Cl)(Cl)Cl)nc3ccccc23)c1` , report inhibition.
Response line: 4.81

Prompt line: Give recorded inhibition. CCCCOc1ccc(OCCNC(=O)C2CCCN2C(=O)Nc2ccccc2)cc1 (centres undefined)
Response line: 8.66

Prompt line: Give the value of inhibition reported for the following: `COc1ccc(C(=O)CSc2nnc(CNc3ccc(C)cc3C)o2)cc1`
Response line: -7.42

Prompt line: Item `Cc1ccc(NC(=O)c2oc3ccc(S(=O)(=O)N4CCOCC4)cc3c2C)cc1C` : provide inhibition
Response line: -7.43

Prompt line: Could you please provide reported inhibition for `O=C(CSCc1ccccc1Cl)Nc1c[nH]c(=O)[nH]c1=O` ? Thanks!
Response line: 1.55

Prompt line: Determine its reported inhibition: NS(=O)(=O)c1ccc(N2N=C(c3ccccc3)CC2c2ccccc2)cc1 (centres undefined)
Response line: 16.9

Prompt line: Identify measured inhibition corresponding to `Cc1ccc(S(=O)(=O)N2CCN(Cc3nc4sc5c(c4c(=O)[nH]3)CCCC5)CC2)cc1`
Response line: 1.29

Prompt line: Give inhibition for the following compound: `O=C(NNc1c2ccccc2nc2ccccc12)c1ccc(O)cc1`
Response line: 13.8

Prompt line: Provide inhibition value for the following compound: COC(c1ccccc1)c1nnc(CCC(=O)N(C)CCCC2CCCC2)o1 (centres undefined)
Response line: 3.33

Prompt line: Please report the measured inhibition for `O=C(Nc1ccc(C(F)(F)F)cc1)c1ccccc1`
Response line: 0.07

Prompt line: In one line, give reported inhibition of the entry `CC(C)N1C(=O)S/C(=C\c2ccc(-c3ccc(Cl)c(C(=O)O)c3)o2)C1=O` .
Response line: 4.73

Prompt line: Answer with the recorded inhibition of O=C(C1CCC(CNc2nc(=S)[nH]c3ccccc23)CC1)N1CCN(c2ccccn2)CC1 (centres undefined) only.
Response line: 6.46

Prompt line: Provide measured inhibition value, entry: `CCOc1ccc(-c2cc(C)[n+](CCO)c(-c3ccc(OCC)cc3)c2)cc1`
Response line: 4.23

Prompt line: # return recorded inhibition for entry `CC(=O)c1ccc(OCC(O)COc2ccc(C(C)=O)cc2)cc1`
Response line: 6.86

Prompt line: Name the recorded inhibition of the compound listed here: COc1ccc(OCCCC(=O)OC(C)C(=O)Nc2ccc(NC(C)=O)cc2)cc1 (centres undefined)
Response line: -25.7

Prompt line: Give the reported inhibition for this compound. `COc1cccc(NC(=O)c2oc3ccc(S(=O)(=O)N4CCOCC4)cc3c2C)c1`
Response line: 58

Prompt line: Give the measured inhibition for `CC(C)[C@H](NC(N)=O)C(=O)NNC(=O)COc1cccc(C(F)(F)F)c1`
Response line: -1.74

Prompt line: Name the recorded inhibition of the item Cc1cccc(-n2ncc3c2CCCC3NC(=O)C2=CC(=O)CC(C)(C)O2)c1C (centres undefined) in your answer.
Response line: -0.85

Prompt line: Item `CCCC(=O)Nc1ccc2c(c1)nc(CN1CCCC1)n2C` : provide inhibition
Response line: -1.98

Prompt line: Tell me measured inhibition for `N#Cc1ccc(S(=O)(=O)N2CCCN(c3nc4ccc(Cl)cc4s3)CC2)cc1` please.
Response line: -8.22

Prompt line: Tell me its inhibition given `CN(C(=O)CCc1nnc(-c2ccc(-c3ccccc3)cc2)o1)C1CCOCC1` as the entry.
Response line: -8.56

Prompt line: State its inhibition: `COc1ccc(NC(=O)c2cc(-c3cc(C)ccc3O)n[nH]2)cc1Cl`
Response line: -5.54

Prompt line: Give the measured inhibition for `CCc1cc(/C(Cc2ccccn2)=N\O)c(O)cc1O`
Response line: -0.69

Prompt line: Return the recorded inhibition value; entry: `CCc1c(C)nc(N2CCN(c3cccc(OC)c3)CC2)[nH]c1=O`
Response line: -3.6

Prompt line: Entry `CC(C)COC(=O)NCCCOC(=O)Nc1ccccc1` needs its inhibition filled in; supply it.
Response line: 2.06

Prompt line: Report measured inhibition; entry is `Nc1nc(-c2ccc(Cl)cc2)c(S(=O)(=O)c2ccccc2)s1`
Response line: -1.98

Prompt line: Answer with reported inhibition of O=C(O)C(c1ccccc1)N1CCCC1 (centres undefined)
Response line: -1.43

Prompt line: Determine its reported inhibition: `COc1cccc(NC(=O)[C@H](Cc2ccccc2)NC(=O)[C@@H]2Cc3ccccc3CN2)c1`
Response line: -7.04

Prompt line: Could you please provide reported inhibition for C#Cc1ccc(CN2CCN(Cc3ccsc3)C(CCO)C2)cc1 (centres undefined) ? Thanks!
Response line: -1.98

Prompt line: Fill in inhibition for record `CCCC(=O)NNc1c2ccccc2nc2ccccc12`
Response line: -11.4

Prompt line: Query inhibition for `CN(CC(=O)NCc1ccccc1)S(=O)(=O)c1cnc[nH]1`
Response line: 2.4

Prompt line: Tell me its inhibition given CC(OC(=O)CCC(=O)c1cccs1)C(=O)Nc1ccccc1[N+](=O)[O-] (centres undefined) as the entry.
Response line: -1.97

Prompt line: Quick one: give measured inhibition for `Cc1nnsc1S(=O)(=O)c1ccccc1`
Response line: -0.59

Prompt line: Supply recorded inhibition for `COc1ccc(NC2=NC(C)(C)CS2)cc1` here.
Response line: -0.92

Prompt line: State its inhibition for this compound: `CCOc1ccc(-c2cc(C)[n+](CCN3CCOCC3)c(-c3ccc(OCC)cc3)c2)cc1`
Response line: 12.3

Prompt line: Using the record for `O=[N+]([O-])c1ccc(Nc2nc(NCCO)nc(N3CCCC3)n2)cc1` , state its measured inhibition.
Response line: 7.94

Prompt line: Could you please provide reported inhibition for CC(Oc1ccc2c3c(c(=O)oc2c1)CCCC3)C(=O)NCc1ccccn1 (centres undefined) ? Thanks!
Response line: 33.2

Cited source for all entries: PubChem BioAssay AID449762
